- System: Bacillus subtilis
- experimentSummary: cleaved RNA product abundance (RNA/gDNA barcode ratio) relative to median wild-type variant (ratio to wild type); higher = more accumulation of the downstream cleavage product
- measurementParameters: experiment (reporter, strain, medium): exp 4a: truncated aprE reporter, strain BJT201 with 2% xylose (RNase J1 expressed); cleavage site: cggR-gapA (positions -7 to +36 mutated)
Rule: true for cleaved RNA product abundance not less than 0.2, false for anything less.

Worked cases, answers included:
1) ACAGACGAAGGAGCCGCAAATAAGTTATTAAGGGATGAATAATCCCTCACTATAAATATCTCTCACTTATTTAAA; true
2) ACAGACGAAGGAGCCGCAAAGAAGTTATTAAGTGATGAAGAATCCCTCAATATAAATATCTCTCACTTATTTAAA; false
3) ACAGACGAAGGAGCCGCAAAGAAGATATTAAGGGATGAATAATCCCTCAATATAAATGTCTCTCACTTATTTAAA; true
4) ACAGACGAAGGAGCCGCATAGAAGTTATTAAGGGATGAATAATCCCTCAATATAAATATCTCTCACTTATTTAAA; true
5) ACAGACGAAGGAGCCGCAAAGAAGTTATTAAGGGATGAATAATCCCACATTATAAATATCTCTCACTTATTTAAA; false

Okay, now this sequence:
Exercise: Please check the record ACAGACGAAGGAGCCGCAAAGAAGTTATTAAGGGATGAATAATACCTCAATATAATTATCTCTCACTTATTTAAA and state if its cleaved RNA product abundance is at or above 0.2.
Solution: false

----------
- System: Bacillus subtilis
- experimentSummary: cleaved RNA product abundance (RNA/gDNA barcode ratio) relative to median wild-type variant (ratio to wild type); higher = more accumulation of the downstream cleavage product
- measurementParameters: experiment (reporter, strain, medium): exp 4a: truncated aprE reporter, strain BJT201 with 2% xylose (RNase J1 expressed); cleavage site: cggR-gapA (positions -7 to +36 mutated)
List of cleaved RNA product abundance values.
// no unit, no text: just the number

Exercise: Look up cleaved RNA product abundance for this sequence: ACAGACGAAGGAGCCGCAAATAAATTATTAAGGGAAGAATAATCCCTCAATATAAATATCTCTCACTTATTTAAA
Solution: 0.369

Exercise: Look up cleaved RNA product abundance for this sequence: ACAGACGAAGGAGCCGCAAAGAAGTTATTAAGGGATGAATAATCACTCAATAAAAATATCTCTCACTTATTTAAA
Solution: 0.0861

Exercise: Look up cleaved RNA product abundance for this sequence: ACAGACGAAGGAGCCGCATAGAAGTTATTAAGGAATGAATATTCCCTCAATATAAATATCTCTCACTTATTTAAA
Solution: 0.263

Exercise: Look up cleaved RNA product abundance for this sequence: ACAGACGAAGGAGCCGCAAAGAAGTTATTAAGGGATGAATAAACCCTGAATATAAATATCTCTCACTTATTTAAA
Solution: 0.388

----------
- Tested on: Bacillus subtilis
- experimentSummary: cleaved RNA product abundance (RNA/gDNA barcode ratio) relative to median wild-type variant (ratio to wild type); higher = more accumulation of the downstream cleavage product
- measurementParameters: experiment (reporter, strain, medium): exp 6: tetM reporter, strain 168; cleavage site: cggR-gapA (positions -7 to +36 mutated)
measuredMetric: cleaved RNA product abundance
// no unit, no text: just the number

Known results for sequences:
1. ACAGACGAAGGAGCCGCAAAGAAGTTATTAAGGGATGAATAGTCCCTCAATATAAATATCTCTCACTTATTTAAA; 1.25
2. ACAGACGAAGGAGCCACAAAGAAGTTATTAAGGGATGAATAATCCCTCAATATAAATATCTCTCACTTATTTAAA; 1.09
3. ACAGACGAAGGAGCCGCAAAGAAGTTATTAAGGGATGAATAATCCCTCAATGTAAATATCTCTCACTTATTTAAA; 0.154

Exercise: Look up cleaved RNA product abundance for this sequence: ACAGACGAAGGAGCCGCAAAGAAGTTATTAAGGTATGAATAATCCGTCAATATAAATATCTCTCACTTATTTAAA
Solution: 0.0676

Exercise: Look up cleaved RNA product abundance for this sequence: ACAGACGAAGGAGCCGCAAAGAAGTTATAAAGGGATGACTAATCCCTCAATATAAATATCTCTCACTTATTTAAA
Solution: 0.319

Exercise: Look up cleaved RNA product abundance for this sequence: ACAGACGAAGGAGCCGCAAAGAAGTTATTAAGGGATGAATAATCCTTCAATATAAATATCTCTCACTTATTTAAA
Solution: 0.617

Exercise: Look up cleaved RNA product abundance for this sequence: ACAGACGAAGGAGCCGCAAAGAAGTTATTAAGGGTTGAATAATCCCTCAATATAAATATCTCTCACTTATTTAAA
Solution: 0.439

Exercise: Look up cleaved RNA product abundance for this sequence: ACAGACGAAGGAGCCCCAAAGAAGTTATTAAGGGATGAATAATCCCTCAATATAAATATCTCTCACTTATTTAAA
Solution: 1.36

Exercise: Look up cleaved RNA product abundance for this sequence: ACAGACGAAGGAGCCGCAAAGAAGTTATTAAGGGATGAATAATCCCTCAATATCAATATCTCTCACTTATTTAAA
Solution: 0.216

Exercise: Look up cleaved RNA product abundance for this sequence: ACAGACGAAGGAGCCGCAAAGAAGTTATTAAGGGATGCATAATCCCTCAATATAAATATCTCTCACTTATTTAAA
Solution: 1.15
